Assay: xn = mol fraction of the nth substance listed, in the solute-free solvent
Details: 303.15 K; x2 = 0.6
Tag: Yes if measured solubility (g/100 g solution) is not below 9, No if it is.

Use the examples below as a reference point.
[[record]]
compound = "CCOc1ccccc1C(N)=O + CO + CC#N"
category = "Yes"

[[record]]
compound = "N#CCNC(=O)c1cnccc1C(F)(F)F + CCOC(C)=O + CCO"
category = "Yes"

[[record]]
compound = "Cc1ncc(CO)c(CO)c1O.Cl + O + CCCO"
category = "No"

[[record]]
compound = "Cc1ncc(CO)c(CO)c1O.Cl + O + CC(C)O"
category = "No"

[[record]]
compound = "Cc1c(Br)c(=O)n(C2CCCC2)c2nc(Cl)ncc12 + CCOC(C)=O + CCO"
category = "No"


For this compound, is measured solubility (g/100 g solution) 9 or higher? CCOc1ccccc1C(N)=O + CCO + CC#N
Yes

For this compound, is measured solubility (g/100 g solution) 9 or higher? CCOC(=O)OC1=C(c2cc(C)ccc2C)C(=O)NC12CCC(OC)CC2 (stereo not drawn) + CC(C)=O + O
Yes

Data provenance: the CheMixHub drug solubility set
